Target: T1, human BLyS (full length, arginine to histidine at position 132) on CHO-K1 cells (human, UniProt Q9Y275 1-285)
T1 construct: also called hBLyS; CHO-K1 hBLyS
T1 sequence (Q9Y275 whole entry R130H): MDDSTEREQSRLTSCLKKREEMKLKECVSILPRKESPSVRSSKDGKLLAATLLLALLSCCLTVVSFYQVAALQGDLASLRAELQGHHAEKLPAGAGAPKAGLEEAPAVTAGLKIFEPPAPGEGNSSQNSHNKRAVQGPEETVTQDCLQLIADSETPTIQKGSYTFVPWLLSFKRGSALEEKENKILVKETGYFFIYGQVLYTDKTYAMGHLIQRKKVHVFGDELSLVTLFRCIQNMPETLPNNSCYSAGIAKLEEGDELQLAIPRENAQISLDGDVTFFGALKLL
Experiment: flow cytometry, CHO-K1 hBLyS cells, antibody 2.67 nM
experimental-endpoint: MFI (MFI)
Give bare numbers, in MFI.

// fetch MFI given entry L1D12 (antibody, V domains shown, From a human naive scFv phage library; also called human BLyS antibody L1D12; LID12) VH: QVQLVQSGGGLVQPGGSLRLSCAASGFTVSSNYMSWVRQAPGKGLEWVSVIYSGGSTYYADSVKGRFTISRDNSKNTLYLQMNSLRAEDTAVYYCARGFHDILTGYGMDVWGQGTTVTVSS VL: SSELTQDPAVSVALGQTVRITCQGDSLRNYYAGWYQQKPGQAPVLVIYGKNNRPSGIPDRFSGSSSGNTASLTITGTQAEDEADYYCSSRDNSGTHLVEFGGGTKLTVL
503

// fetch MFI given entry 111D10D6G3 (antibody, V domains shown, Mouse hybridoma monoclonal antibody purified on Protein G) VH: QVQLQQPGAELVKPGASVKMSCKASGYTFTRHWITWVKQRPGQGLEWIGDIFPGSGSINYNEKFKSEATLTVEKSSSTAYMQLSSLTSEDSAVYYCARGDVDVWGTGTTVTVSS VL: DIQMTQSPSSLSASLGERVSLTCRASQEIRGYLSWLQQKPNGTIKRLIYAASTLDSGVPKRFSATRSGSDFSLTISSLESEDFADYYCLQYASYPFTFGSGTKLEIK
265

Continuing:
// fetch MFI given entry 93C6F10D3 (antibody, V domains shown, Mouse hybridoma monoclonal antibody purified on Protein G) VH: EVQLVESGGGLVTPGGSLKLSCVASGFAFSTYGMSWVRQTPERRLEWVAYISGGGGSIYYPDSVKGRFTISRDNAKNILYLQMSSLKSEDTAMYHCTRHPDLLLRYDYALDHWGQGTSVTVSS VL: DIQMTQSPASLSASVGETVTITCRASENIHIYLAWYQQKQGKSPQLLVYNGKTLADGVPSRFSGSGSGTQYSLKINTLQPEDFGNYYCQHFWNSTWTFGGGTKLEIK
317

These entries and their values trace back to patent US20210347873A1.
